# Assayed System: T1, CRBN, Q96SW2;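 also: pooled lentiviral library of zinc finger degron-EGFP fusions in mCherry-positive Jurkat cells, FACS-sorted after compound exposure, with degron abundance counted by next-generation sequencing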
# T1 chain: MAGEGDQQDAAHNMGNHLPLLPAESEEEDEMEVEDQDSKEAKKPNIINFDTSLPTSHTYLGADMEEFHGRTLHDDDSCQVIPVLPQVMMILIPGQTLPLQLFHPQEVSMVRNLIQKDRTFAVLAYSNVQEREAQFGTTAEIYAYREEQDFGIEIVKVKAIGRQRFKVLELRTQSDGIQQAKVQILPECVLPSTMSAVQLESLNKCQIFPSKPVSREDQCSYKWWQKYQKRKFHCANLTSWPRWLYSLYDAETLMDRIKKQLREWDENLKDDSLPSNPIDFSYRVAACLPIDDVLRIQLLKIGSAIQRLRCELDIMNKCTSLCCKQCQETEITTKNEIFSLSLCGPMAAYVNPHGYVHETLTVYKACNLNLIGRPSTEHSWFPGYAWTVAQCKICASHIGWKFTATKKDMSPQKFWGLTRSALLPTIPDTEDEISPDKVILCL
# Assay Explanation: log2 fold change of degron read counts, EGFP-low vs EGFP+ sorted cells (limma voom), compound-induced degradation; higher = more compound-induced degradation of the degron-EGFP fusion; degrons are variants of IKZF1/3 zinc finger 2; compound dose not given here
# Experimental Context: Jurkat; 18 h; compound: compound 22 (5-morpholino-thalidomide)
Whole data set: some 8,300 sequences, median “log2 fold change of degron read counts, EGFP-low vs EGFP+ sorted cells (limma voom), compound-induced degradation” near -1.1, cut for the highest 2% near 3.2. This is one part of a sample in which the highest values are shown more often than they occur.
Reported Metric: log2 fold change of degron read counts
Answers are plain numbers.

Please review the entries below; each comes with its answer.
Polymer Sequence: FHCDVCGARFTQKGNLLRHIKL [46F_47H_49D_50V_52G_53A_54R_55F_67L_, Q9UKT9]
Reported Metric: log2 fold change of degron read counts
Meas Value: 0.585
//
Polymer Sequence: LMCEICGFQCTQKGNLLRHIKL [46L_47M_49E_50I_52G_53F_54Q_55C_67L_, Q9UKT9]
Reported Metric: log2 fold change of degron read counts
Meas Value: 0.912
//
Polymer Sequence: FGCDVCGARFTQKGNLLRHIKL [46F_47G_49D_50V_52G_53A_54R_55F_67L_, Q9UKT9]
Reported Metric: log2 fold change of degron read counts
Meas Value: -0.377
//
Polymer Sequence: FVCDVCGARFTQKGNLLRHIKL [46F_47V_49D_50V_52G_53A_54R_55F_67L_, Q9UKT9]
Reported Metric: log2 fold change of degron read counts
Meas Value: 0.623
//
Polymer Sequence: FACNVCGAMFTQKGNLLRHIKL [46F_47A_49N_50V_52G_53A_54M_55F_67L_, Q9UKT9]
Reported Metric: log2 fold change of degron read counts
Meas Value: -0.724

For each of the sequences below, note its log2 fold change of degron read counts.
1. FLCDVCGARFTQKGNLLRHIKL [46F_47L_49D_50V_52G_53A_54R_55F_67L_, Q9UKT9]
2. LACEICGFQCTQKGNLLRHIKL [46L_47A_49E_50I_52G_53F_54Q_55C_67L_, Q9UKT9]

Solution:
1: -2.29; 2: 2.06
